Below is a list of entries, each paired with its recorded percentage of CD107+ NK cells value.
Tested on: NKG2A−/NKG2C+ NK cells
Assay: NK cell activation markers in NKG2A-/NKG2C+ NK cells incubated with peptide and K562 expressing HLA-E (activation)
Format: cell-based, human
Conditions: NKG2A-/NKG2C+ NK cells, K562/HLA-E, Trial 4
Where no end group is shown, it is not given here.
A number alone suffices; assume %.

Guide cases for percentage of CD107+ NK cells, answers given:
>>> data_value("TGPWRSLWI [human3, TGPWRSLWI]")
62.3
>>> data_value("TLPERTLYL [human7, peptide ECEL1 269-277 derived from the human proteome]")
63.2
>>> data_value("FLPNRSLLF [human8, peptide SLC52A3 354-362 derived from the human proteome]")
64.8

Consider the record given below.
Give the reported percentage of CD107+ NK cells for this sequence. TLPKRGLFL [human2, TLPKRGLFL] 71.7
